The reported measurements were obtained from patent US10130633B2.

# Test system: HCT116 FOP control reporter cell line
# assay.overview: HCT116 FOPFlash control reporter assay (FOP control vector, non-functional TCF elements)
# Type: cell-based
# condition.label: Homo sapiens, HCT-116, 36 h, HCT116 FOP control reporter cells, 36 hours incubation, luciferase expression
assay.readout: IC50

- compound: "COCc1ccc(C(=O)Nc2nnc(-c3ccccc3)s2)cc1NC(=O)C1(N2CCOCC2)CC1"
  IC50: "≥ 50 µM"
- compound: "O=C(CN1CCOCC1)Nc1cc(C(=O)Nc2cnc(-c3ccccc3)s2)ccc1OC(F)(F)F"
  IC50: "≥ 50 µM"
- compound: "CS(=O)(=O)Cc1ccc(C(=O)Nc2nnc(-c3ccccc3)s2)cc1NC(=O)C1(N2CCOCC2)CC1"
  IC50: "≥ 50 µM"
- compound: "Nc1ccc(-c2nnc(NC(=O)c3ccc(OC(F)(F)F)c(NC(=O)CN4CCOCC4)c3)s2)cc1"
  IC50: "≥ 50 µM"
- compound: "CC(C(=O)Nc1cc(C(=O)Nc2ccc(-c3ccccc3F)nc2)ccc1C(C)(C)C)N1CCOCC1 (stereo not drawn)"
  IC50: "7.15 µM"
- compound: "O=C(CN1CC2CCC(C1)O2)Nc1cc(C(=O)Nc2nnc(-c3ccccc3)s2)ccc1OC(F)(F)F"
  IC50: "≥ 50 µM"
- compound: "CC(C)(C)c1ccc(NC(=O)c2ccc(-c3ccccc3)s2)cc1NC(=O)CN1CCOCC1"
  IC50: "11 µM"
- compound: "CN1CCN(C2(C(=O)Nc3cc(C(=O)Nc4nnc(-c5ccccc5)s4)ccc3OC3CC3)CC2)CC1"
  IC50: "≥ 50 µM"
- compound: "CCc1ccccc1-c1nnc(NC(=O)c2ccc(OC(F)(F)F)c(NC(=O)CN3CCOCC3)c2)s1"
  IC50: "≥ 50 µM"
- compound: "Cc1ccccc1-c1nnc(NC(=O)c2ccc(OC(F)(F)F)c(NC(=O)C3(N4CCN(C)CC4)CC3)c2)s1"
  IC50: "≥ 50 µM"

Short answer for CC(C(=O)Nc1cc(C(=O)Nc2ncc(-c3ccccc3)s2)ccc1C(C)(C)C)N1CCOCC1 (stereo not drawn) : IC50 was ≥ 50 µM

According to the records, this compound "O=C(CN1CCOCC1)Nc1cc(C(=O)Nc2nnc(-c3ccc([N+](=O)[O-])cc3)s2)ccc1OC(F)(F)F" displays IC50 of ≥ 50 µM

The compound identified as "O=C(CN1CCOCC1)Nc1cc(NC(=O)c2ccc(-c3ccccc3F)nc2)ccc1OC(F)(F)F" registered its IC50 at ≥ 50 µM

"CN(C)C1(C(=O)Nc2cc(C(=O)Nc3ccc(-c4ccccc4F)nc3)ccc2OC2CC2)CC1" has a reported IC50 of 10 µM

Input "COc1ccc(NC(=O)c2ccc(-c3ccccc3F)nc2)cc1NC(=O)CN1CCOCC1" . Output IC50: 36 µM
